Test system: SCLC-21H;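 also: growth inhibition of cultured human SCLC-21H cells, read out with a cell viability assay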
Test: cells
Format: functional, cell-based, Homo sapiens
Settings: Homo sapiens, SCLC-21H
Description: SANGER: Inhibition of human SCLC-21H cell growth in a cell viability assay.

- Compound: "Oc1ccc2ccccc2c1SSc1c(O)ccc2ccccc12"
  Target System: "SCLC-21H"
  IC50: "> 32 µM"
- Compound: "COc1cc(-c2nn([C@H]3CC[C@H](N4CCN(C(C)=O)CC4)CC3)c3ncnc(N)c23)ccc1NC(=O)c1cc2ccccc2n1C"
  Target System: "SCLC-21H"
  IC50: "> 5.12 µM"
- Compound: "CC[C@H](CO)Nc1nc(NCc2ccccc2)c2ncn(C(C)C)c2n1"
  Target System: "SCLC-21H"
  IC50: "> 16 µM"
- Compound: "N[C@@H](CSC(c1ccccc1)(c1ccccc1)c1ccccc1)C(=O)O"
  Target System: "SCLC-21H"
  IC50: "2.83 µM"
- Compound: "OCCCNc1cc(-c2ccnc(Nc3cccc(Cl)c3)n2)ccn1"
  Target System: "SCLC-21H"
  IC50: "> 0.256 µM"
- Compound: "COc1cc(N2CCN(C)CC2)ccc1Nc1ncc2c(n1)N(C)c1ccccc1C(=O)N2C"
  Target System: "SCLC-21H"
  IC50: "> 8 µM"

---

Item-by-item account of IC50
System: BPH-1;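 also: cell viability assay measuring growth inhibition of human BPH-1 cells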
Assay: cells
Format: functional, cell-based, Homo sapiens
Conditions: Homo sapiens, BPH-1
Description: SANGER: Inhibition of human BPH-1 cell growth in a cell viability assay.

- Compound: "CS(=O)(=O)c1ccc(C(=O)Nc2ccc(Cl)c(-c3ccccn3)c2)c(Cl)c1 [VISMODEGIB]"
  Unit Tag: "nM"
  Readout Relation: ">"
  IC50: 10000
- Compound: "CC(C)c1ccccc1Cc1cc(C(=O)Nc2ccc(S(=O)(=O)c3ccccc3C(C)(C)C)cc2)c(O)c(O)c1O"
  Unit Tag: "nM"
  Readout Relation: "="
  IC50: 286
- Compound: "Cn1cnc2c(F)c(Nc3ccc(Br)cc3Cl)c(C(=O)NOCCO)cc21 [SELUMETINIB]"
  Unit Tag: "nM"
  Readout Relation: "="
  IC50: 182
- Compound: "Cc1cn(-c2cc(NC(=O)c3ccc(C)c(Nc4nccc(-c5cccnc5)n4)c3)cc(C(F)(F)F)c2)cn1 [NILOTINIB]"
  Unit Tag: "nM"
  Readout Relation: ">"
  IC50: 2000
- Compound: "Nc1ccn([C@@H]2O[C@H](CO)[C@@H](O)C2(F)F)c(=O)n1 [GEMCITABINE]"
  Unit Tag: "nM"
  Readout Relation: "="
  IC50: 20.3

---

Test system: TALL-1;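 also: growth inhibition of cultured human TALL-1 cells, read out by a cell viability assay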
Experiment: cells
Assay type: functional, cell-based, Homo sapiens
Details: tall-1
Description: SANGER: Inhibition of human TALL-1 cell growth in a cell viability assay.
pIC50: −log10 of the molar value.

- Residue Codes: "BLEOMYCIN"
  pIC50: 3.61

---

Tested on: SAS
Assay: cells
Assay type: functional, cell-based, Homo sapiens
Settings: sas
Description: SANGER: Inhibition of human SAS cell growth in a cell viability assay.
pIC50: −log10 of the molar value.

- Residue Codes: "CISPLATIN"
  Target System: "SAS"
  pIC50: 4.73

---

System: UACC-893
Assay: cells
Assay type: functional, cell-based, Homo sapiens
Details: Homo sapiens, UACC-893
Description: SANGER: Inhibition of human UACC-893 cell growth in a cell viability assay.
pIC50: −log10 of the molar value.

- Compound: "CC(C)c1ccccc1Cc1cc(C(=O)Nc2ccc(S(=O)(=O)c3ccccc3C(C)(C)C)cc2)c(O)c(O)c1O"
  Target System: "UACC-893"
  Readout Relation: "="
  pIC50: 5.84
- Compound: "CN(C)C(=N)NC(=N)N"
  Target System: "UACC-893"
  Readout Relation: "="
  pIC50: 2.00
- Compound: "Nc1cccc2c1CN(C1CCC(=O)NC1=O)C2=O (stereo not given) [LENALIDOMIDE]"
  Target System: "UACC-893"
  Readout Relation: "<"
  pIC50: 5.30
- Compound: "COc1cccc2c1C(=O)c1c(O)c3c(c(O)c1C2=O)C[C@@](O)(C(=O)CO)C[C@@H]3O[C@H]1C[C@H](N)[C@H](O)[C@H](C)O1"
  Target System: "UACC-893"
  Readout Relation: "="
  pIC50: 6.28
- Compound: "Cc1cc([N+](=O)[O-])ccc1NS(=O)(=O)c1cc(Cl)ccc1Cl"
  Target System: "UACC-893"
  Readout Relation: "="
  pIC50: 5.51
